Target: Dual specificity tyrosine-phosphorylation-regulated kinase 2 (Homo sapiens, UniProt Q92630)
Sequence (Q92630 whole entry): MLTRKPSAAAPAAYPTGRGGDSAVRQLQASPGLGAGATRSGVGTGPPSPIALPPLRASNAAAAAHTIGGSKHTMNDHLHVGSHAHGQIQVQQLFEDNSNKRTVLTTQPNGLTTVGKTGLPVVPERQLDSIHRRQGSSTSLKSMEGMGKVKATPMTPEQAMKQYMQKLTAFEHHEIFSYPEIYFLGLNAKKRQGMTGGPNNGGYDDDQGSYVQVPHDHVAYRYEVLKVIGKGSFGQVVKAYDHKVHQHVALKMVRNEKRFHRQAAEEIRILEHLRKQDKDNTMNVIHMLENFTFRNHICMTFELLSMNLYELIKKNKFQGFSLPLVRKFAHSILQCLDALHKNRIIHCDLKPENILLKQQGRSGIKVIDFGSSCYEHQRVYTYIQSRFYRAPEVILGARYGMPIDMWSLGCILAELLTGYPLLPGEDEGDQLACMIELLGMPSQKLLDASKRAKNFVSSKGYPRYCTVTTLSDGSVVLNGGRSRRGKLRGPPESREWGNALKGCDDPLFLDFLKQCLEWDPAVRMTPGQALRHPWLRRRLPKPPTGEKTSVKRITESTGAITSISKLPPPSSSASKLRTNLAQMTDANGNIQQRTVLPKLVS
OBSERVED PROPERTY: IC50 (nM)
# output: bare number, implied unit nM

Name the recorded IC50 for "Cc1ccc2c(-c3ccc4ncnc(N[C@H](CO)c5ccccc5)c4c3)c[nH]c2n1" .
14.2

###

Biological target: Cytochrome P450 2C19 (Homo sapiens)
Sequence (P33261 whole entry): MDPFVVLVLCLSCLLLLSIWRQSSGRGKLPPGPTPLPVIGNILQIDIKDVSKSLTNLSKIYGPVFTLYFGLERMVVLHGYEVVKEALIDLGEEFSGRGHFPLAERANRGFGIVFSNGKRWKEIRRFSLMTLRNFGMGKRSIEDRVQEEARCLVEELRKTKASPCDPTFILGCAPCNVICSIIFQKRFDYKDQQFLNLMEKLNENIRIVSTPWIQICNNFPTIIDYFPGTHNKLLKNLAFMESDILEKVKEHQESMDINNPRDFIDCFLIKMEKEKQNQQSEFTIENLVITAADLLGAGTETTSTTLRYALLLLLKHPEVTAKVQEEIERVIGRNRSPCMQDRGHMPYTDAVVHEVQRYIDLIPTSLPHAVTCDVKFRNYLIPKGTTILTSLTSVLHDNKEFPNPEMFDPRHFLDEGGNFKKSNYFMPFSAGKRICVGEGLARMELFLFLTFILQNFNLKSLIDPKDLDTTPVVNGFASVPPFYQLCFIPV
OBSERVED PROPERTY: IC50 (nM)
# output: bare number, implied unit nM

Param readout = IC50; param system = Cytochrome P450 2C19 (Homo sapiens); param query = "Cc1ccc2c(-c3ccc4ncnc(N[C@H](CO)c5ccccc5)c4c3)c[nH]c2n1" ; response: value
1030

###

Parameter IC50: see the listing below.
Molecular target: Glycogen synthase kinase-3 beta (Homo sapiens)
Sequence (P49841 whole entry): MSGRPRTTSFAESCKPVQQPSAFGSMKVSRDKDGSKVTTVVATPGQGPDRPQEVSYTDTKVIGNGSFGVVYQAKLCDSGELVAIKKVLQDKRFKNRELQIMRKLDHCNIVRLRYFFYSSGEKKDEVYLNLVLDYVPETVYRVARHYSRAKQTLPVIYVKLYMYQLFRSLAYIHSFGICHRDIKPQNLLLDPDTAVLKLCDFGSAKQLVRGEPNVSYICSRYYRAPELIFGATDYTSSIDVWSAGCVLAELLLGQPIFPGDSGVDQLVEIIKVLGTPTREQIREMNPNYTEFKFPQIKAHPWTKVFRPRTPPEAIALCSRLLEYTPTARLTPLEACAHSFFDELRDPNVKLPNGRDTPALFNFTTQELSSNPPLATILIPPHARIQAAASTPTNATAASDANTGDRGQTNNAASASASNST
Assay: Inhibition of GSK-3beta (unknown origin) preincubated with enzyme for 10 mins followed by substrate and ATP addition measured after 60 mins by ADP-Glo reagent based assay
# output: bare number, implied unit nM

Name the recorded IC50 for "OC[C@@H](Nc1ncnc2ccc(-c3c[nH]c4ncccc34)cc12)c1ccccc1" .
33.4

More entries:
Name the recorded IC50 for "Cc1ccc2c(-c3ccc4ncnc(N[C@H](CO)c5ccccc5)c4c3)c[nH]c2n1" .
1420

###

Molecular target: Dual specificity tyrosine-phosphorylation-regulated kinase 1A (Homo sapiens)
Threshold 2 nM: IC50 strictly smaller gives 1, otherwise -1.

Check out these entries, answers already filled in.
Please determine if "OC[C@@H](Nc1ncnc2ccc(-c3c[nH]c4ncccc34)cc12)c1ccccc1" is below 2 nM in terms of IC50.
1

Please determine if "c1ccc(CCNc2ncnc3ccc(-c4c[nH]c5ncccc45)cc23)cc1" is below 2 nM in terms of IC50.
1

Please determine if "c1cnc2[nH]cc(-c3ccc4ncnc(NCc5ccncc5)c4c3)c2c1" is below 2 nM in terms of IC50.
1

Please determine if "OC[C@H](Nc1ncnc2ccc(-c3c[nH]c4ncccc34)cc12)c1ccccc1" is below 2 nM in terms of IC50.
-1

More entries:
Please determine if OCC(Nc1ncnc2ccc(-c3c[nH]c4ncccc34)cc12)c1ccccc1 (racemic) is below 2 nM in terms of IC50.
1

Please determine if "O=C(O)[C@H]1CCCN(c2ncnc3ccc(-c4c[nH]c5ncccc45)cc23)C1" is below 2 nM in terms of IC50.
-1

Please determine if "Clc1ccc(Nc2ncnc3ccc(-c4c[nH]c5ncccc45)cc23)c(Cl)c1" is below 2 nM in terms of IC50.
1

Please determine if "c1ccc(CNc2ncnc3ccc(-c4c[nH]c5ncccc45)cc23)nc1" is below 2 nM in terms of IC50.
1

Please determine if "c1cnc2[nH]cc(-c3ccc4ncnc(NC5CCOCC5)c4c3)c2c1" is below 2 nM in terms of IC50.
1

Please determine if "CN(CCC(=O)O)c1ncnc2ccc(-c3c[nH]c4ncccc34)cc12" is below 2 nM in terms of IC50.
-1

###

Experiment: Permeability of compound at pH 7.4 at 10 uM incubated for 16 hrs by PAMPA-BBB assay based LC-MS/MS analysis
OBSERVED PROPERTY: Papp at 16 h, 10 µM (×10⁻⁶ cm/s)
# output: bare number, implied unit ×10⁻⁶ cm/s

Answered cases to consult:
Name the recorded Papp at 16 h, 10 µM for CN(Cc1cnc2nc(N)nc(N)c2n1)c1ccc(C(=O)N[C@@H](CCC(=O)O)C(=O)O)cc1 [METHOTREXATE] .
0.01

Name the recorded Papp at 16 h, 10 µM for "Cc1ccc2c(-c3ccc4ncnc(N[C@H](CO)c5ccccc5)c4c3)c[nH]c2n1" .
13.4

Name the recorded Papp at 16 h, 10 µM for "Cc1ccc2c(-c3ccc4ncnc(NC[C@H](O)c5ccccc5)c4c3)c[nH]c2n1" .
2.81

We next turn to a different molecule, shown below.
Name the recorded Papp at 16 h, 10 µM for "COc1ccc(Nc2ncnc3ccc(-c4c[nH]c5nc(C)ccc45)cc23)c(F)c1" .
0.01

###

Assay: AUC (0 to infinity) in Sprague-Dawley rat at 10 mg/kg,po measured upto 24 hrs by LC-MS/MS analysis
Type: ADME, organism-based
Settings: in vivo
OBSERVED PROPERTY: AUC(0-inf) (ng·h/mL)
# output: bare number, implied unit ng·h/mL

Name the recorded AUC(0-inf) for "Cc1ccc2c(-c3ccc4ncnc(N[C@H](CO)c5ccccc5)c4c3)c[nH]c2n1" .
3010

###

Parameter Papp B→A at […], 5 µM: see the listing below.
Assay: Apparent permeability across basolateral to apical side in dog MDCK-MDR1 cells at 5 uM incubated for 90 mins by LC-MS/MS analysis
Format: ADME, cell-based, Canis lupus familiaris
# output: bare number, implied unit nm/s

Name the recorded Papp B→A at […], 5 µM for "COc1ccc(Nc2ncnc3ccc(-c4c[nH]c5nc(C)ccc45)cc23)c(F)c1" .
119

Name the recorded Papp B→A at […], 5 µM for "Cc1ccc2c(-c3ccc4ncnc(NC[C@H](O)c5ccccc5)c4c3)c[nH]c2n1" .
317

Name the recorded Papp B→A at […], 5 µM for COCCc1ccc(OCC(O)CNC(C)C)cc1 (stereo not given) [METOPROLOL] .
280

More entries:
Name the recorded Papp B→A at […], 5 µM for C[C@H]1O[C@@H](O[C@H]2[C@@H](O)C[C@H](O[C@H]3[C@@H](O)C[C@H](O[C@H]4CC[C@@]5(C)[C@H](CC[C@@H]6[C@@H]5C[C@@H](O)[C@]5(C)[C@@H](C7=CC(=O)OC7)CC[C@]65O)C4)O[C@@H]3C)O[C@@H]2C)C[C@H](O)[C@@H]1O [DIGOXIN] .
186

Name the recorded Papp B→A at […], 5 µM for "Cc1ccc2c(-c3ccc4ncnc(N[C@H](CO)c5ccccc5)c4c3)c[nH]c2n1" .
306

###

Target: CYP3A4 (Homo sapiens)
Sequence (P08684 whole entry): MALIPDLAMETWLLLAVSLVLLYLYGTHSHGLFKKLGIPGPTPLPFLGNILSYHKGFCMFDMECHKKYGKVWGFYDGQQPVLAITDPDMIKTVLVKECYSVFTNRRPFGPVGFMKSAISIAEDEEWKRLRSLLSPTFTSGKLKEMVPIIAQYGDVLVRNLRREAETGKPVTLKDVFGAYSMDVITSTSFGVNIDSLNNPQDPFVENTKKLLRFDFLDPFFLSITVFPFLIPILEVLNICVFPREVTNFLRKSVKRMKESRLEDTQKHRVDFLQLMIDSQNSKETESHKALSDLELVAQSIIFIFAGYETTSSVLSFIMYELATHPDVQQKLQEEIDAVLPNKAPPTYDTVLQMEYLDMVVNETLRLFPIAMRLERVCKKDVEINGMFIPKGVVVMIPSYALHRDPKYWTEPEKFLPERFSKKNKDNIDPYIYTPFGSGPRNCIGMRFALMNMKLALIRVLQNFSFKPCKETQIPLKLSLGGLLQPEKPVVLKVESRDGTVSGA
Test: Inhibition of CYP3A4 in human liver microsomes using midazolam as substrate at 10 uM preincubated for 10 mins followed by NADPH addition and measured after 40 mins by LC-MS/MS analysis relative to control
Format: ADME, Microsome
Settings: probe midazolam, time 50 min
OBSERVED PROPERTY: inhibition at 40 min, 10 µM (%)
# output: bare number, implied unit %

Name the recorded inhibition at 40 min, 10 µM for "Cc1ccc2c(-c3ccc4ncnc(N[C@H](CO)c5ccccc5)c4c3)c[nH]c2n1" .
33.1

###

Test: Apparent volume of distribution in Sprague-Dawley rat at 2 mg/kg,iv measured upto 24 hrs by LC-MS/MS analysis
Type: ADME, organism-based
Conditions: in vivo, read-out: Vz
OBSERVED PROPERTY: Vd (L/kg)
# output: bare number, implied unit L/kg

Name the recorded Vd for "Cc1ccc2c(-c3ccc4ncnc(N[C@H](CO)c5ccccc5)c4c3)c[nH]c2n1" .
5.82

###

Test: Half life in Sprague-Dawley rat at 10 mg/kg,po measured upto 24 hrs by LC-MS/MS analysis
Format: ADME, organism-based
Conditions: in vivo
OBSERVED PROPERTY: half-life
Write your answer as a measured quantity: the number, then the unit.

Name the recorded half-life for "Cc1ccc2c(-c3ccc4ncnc(N[C@H](CO)c5ccccc5)c4c3)c[nH]c2n1" .
3.95 h

###

Assay: Drug concentration in Sprague-Dawley rat brain at 10 mg/kg,po measured after 4 hrs by LC-MS/MS analysis
Type: ADME, organism-based
Details: read-out: Ct
OBSERVED PROPERTY: concentration at 4 h (ng/g)
# output: bare number, implied unit ng/g

Name the recorded concentration at 4 h for "Cc1ccc2c(-c3ccc4ncnc(N[C@H](CO)c5ccccc5)c4c3)c[nH]c2n1" .
39.1

###

Assay: Drug concentration in Sprague-Dawley rat plasma at 10 mg/kg,po measured after 2 hrs by LC-MS/MS analysis
Assay type: ADME, organism-based
OBSERVED PROPERTY: concentration at 2 h (ng/mL)
# output: bare number, implied unit ng/mL

Name the recorded concentration at 2 h for "Cc1ccc2c(-c3ccc4ncnc(N[C@H](CO)c5ccccc5)c4c3)c[nH]c2n1" .
141

###

Assay: Drug concentration in Sprague-Dawley rat brain at 10 mg/kg,po measured after 6 hrs by LC-MS/MS analysis
Assay type: ADME, organism-based
Conditions: read-out: Ct
OBSERVED PROPERTY: concentration at 6 h (ng/g)
# output: bare number, implied unit ng/g

Name the recorded concentration at 6 h for "Cc1ccc2c(-c3ccc4ncnc(N[C@H](CO)c5ccccc5)c4c3)c[nH]c2n1" .
13.1

###

Test: AUC (0 to t) in Sprague-Dawley rat at 2 mg/kg,iv measured upto 24 hrs by LC-MS/MS analysis
Format: ADME, organism-based
Conditions: in vivo
OBSERVED PROPERTY: AUC(0-t) at 24 h (ng·h/mL)
# output: bare number, implied unit ng·h/mL

Name the recorded AUC(0-t) at 24 h for "Cc1ccc2c(-c3ccc4ncnc(N[C@H](CO)c5ccccc5)c4c3)c[nH]c2n1" .
1500
